molecular target: Human SIRPα v2 (antigen of the Octet and Biacore affinity measurements) (human) (UniProt P78324); assay: SPR (Biacore), 1:1 binding model
ATTRIBUTE_MEASURED: pKd
Answer as the number alone; pKd is minus log10 of concentration in mol/L.

Q) Return reported pKd; argument: 025c (antibody, V domains shown) VH: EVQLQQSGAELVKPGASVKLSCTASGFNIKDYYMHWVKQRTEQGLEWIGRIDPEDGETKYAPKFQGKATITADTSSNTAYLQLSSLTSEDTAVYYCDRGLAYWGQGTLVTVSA VL: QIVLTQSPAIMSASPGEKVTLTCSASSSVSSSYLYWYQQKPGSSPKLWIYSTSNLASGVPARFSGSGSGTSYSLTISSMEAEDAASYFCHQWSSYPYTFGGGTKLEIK
A) 8.77

FYI, the data here is from patent US20250270315A1.
